The origin of these recorded values is paper PMC8623851.

- target-entity: α1B-AR (Homo sapiens)
- Sequence (P35368 whole entry): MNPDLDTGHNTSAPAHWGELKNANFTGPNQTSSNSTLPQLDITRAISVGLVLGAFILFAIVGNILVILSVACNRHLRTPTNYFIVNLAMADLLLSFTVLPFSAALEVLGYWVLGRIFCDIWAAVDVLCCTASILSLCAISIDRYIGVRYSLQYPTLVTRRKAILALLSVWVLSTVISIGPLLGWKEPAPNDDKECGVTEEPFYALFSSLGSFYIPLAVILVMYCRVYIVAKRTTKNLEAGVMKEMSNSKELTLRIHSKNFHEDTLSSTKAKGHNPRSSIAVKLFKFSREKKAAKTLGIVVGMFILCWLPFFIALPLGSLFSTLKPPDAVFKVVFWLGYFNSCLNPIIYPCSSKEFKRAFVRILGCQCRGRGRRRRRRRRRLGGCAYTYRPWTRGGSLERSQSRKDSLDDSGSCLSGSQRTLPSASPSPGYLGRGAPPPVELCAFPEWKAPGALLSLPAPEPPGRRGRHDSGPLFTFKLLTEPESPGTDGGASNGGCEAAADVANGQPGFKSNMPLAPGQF
- protocol-text: Intrinsic (functional) activity for α1B-AR (Aequoscreen)
- condition-notes: antagonist potency; α1B-AR in mouse spleen (table title); 4–7 experimental results; read-out: IC50 ± SEM α1B-AR
experimental-readout: pIC50
pIC50 here is simply -log10 of the concentration when that concentration is written in mol/L.

Solved cases (3 shown):
CCOc1ccccc1OCCN[C@H](C)Cc1ccc(OC)c(S(N)(=O)=O)c1 [Tamsulosin, reference compound] | 9.89
COc1ccc(/C=C2\NC(=O)N(CCCN3CCN(c4ccccc4OC)CC3)C2=O)cc1 [Compound 12] | 8.07
CCOc1ccccc1N1CCN(CCCN2C(=O)N/C(=C\c3cc(OC)c(OC)c(OC)c3)C2=O)CC1 [Compound 16] | 9.09

Task: Give a short answer stating reported pIC50 for COc1ccc(/C=C2\NC(=O)N(CCCN3CCN(c4ccccc4OC)CC3)C2=O)cc1OC [Compound 14] .
Output: 6.74

Task: Give a short answer stating reported pIC50 for CCOc1ccccc1N1CCN(CCCN2C(=O)N/C(=C\c3cccc(OC)c3)C2=O)CC1 [Compound 10] .
Output: 8.04

* * *

- target-entity: human 5-HT1A receptor (Homo sapiens)
- Sequence (P08908 whole entry): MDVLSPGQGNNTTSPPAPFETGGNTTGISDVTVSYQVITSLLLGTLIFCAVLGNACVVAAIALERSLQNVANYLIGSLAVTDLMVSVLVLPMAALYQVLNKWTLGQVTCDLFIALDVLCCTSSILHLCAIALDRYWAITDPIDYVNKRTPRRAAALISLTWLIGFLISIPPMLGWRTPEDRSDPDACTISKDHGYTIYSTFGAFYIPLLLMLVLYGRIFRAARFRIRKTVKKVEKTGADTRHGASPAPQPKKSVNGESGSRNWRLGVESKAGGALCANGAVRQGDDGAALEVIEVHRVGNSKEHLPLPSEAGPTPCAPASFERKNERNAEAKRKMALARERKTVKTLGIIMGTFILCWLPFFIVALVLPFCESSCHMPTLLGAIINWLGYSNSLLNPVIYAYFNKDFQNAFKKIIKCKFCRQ
experimental-readout: Ki (nM)
Write the number in nM without appending the unit.

Solved cases (4 shown):
CCOc1ccccc1N1CCN(CCCN2C(=O)N/C(=C\c3cccc(OC)c3)C2=O)CC1 | 103
CCOc1ccccc1N1CCN(CC(O)CN2C(=O)N/C(=C\c3cccc(OC)c3)C2=O)CC1 (stereo not shown) | 557
CCOc1ccccc1N1CCN(CC(O)CN2C(=O)N/C(=C\c3cc(OC)c(OC)c(OC)c3)C2=O)CC1 (stereo not shown) | 1870
COc1ccccc1N1CCN(CCCN2C(=O)N/C(=C\c3cc(OC)c(OC)c(OC)c3)C2=O)CC1 | 172

Below: the item to evaluate.
Task: Give a short answer stating reported Ki for COc1ccc(/C=C2\NC(=O)N(CC(O)CN3CCN(c4ccccc4OC)CC3)C2=O)cc1 (stereo not shown) .
Output: 282

* * *

- target-entity: α1-receptor
- protocol-text: Radioligand binding assay: affinity for α1-receptor ([3H]Prazosin, rat cortex)
experimental-readout: pKi
pKi here is simply -log10 of the concentration when that concentration is written in mol/L.

CCOc1ccccc1N1CCN(CCCN2C(=O)N/C(=C\c3ccc(OC)cc3)C2=O)CC1 | 7.71
COc1cccc(/C=C2\NC(=O)N(CCCN3CCN(c4ccccc4Cl)CC3)C2=O)c1 | 7.35
COc1cccc(/C=C2\NC(=O)N(CC(O)CN3CCN(c4ccccc4OC)CC3)C2=O)c1 (centres unmarked) | 6.73

Below: the item to evaluate.
Task: Find the measured pKi of CCOc1ccccc1N1CCN(CCCN2C(=O)N/C(=C\c3cccc(OC)c3)C2=O)CC1 with α1-receptor as test system.
Output: 7.69

* * *

- target-entity: α1A-AR (Homo sapiens, UniProt P35348)
- Sequence (P35348 whole entry): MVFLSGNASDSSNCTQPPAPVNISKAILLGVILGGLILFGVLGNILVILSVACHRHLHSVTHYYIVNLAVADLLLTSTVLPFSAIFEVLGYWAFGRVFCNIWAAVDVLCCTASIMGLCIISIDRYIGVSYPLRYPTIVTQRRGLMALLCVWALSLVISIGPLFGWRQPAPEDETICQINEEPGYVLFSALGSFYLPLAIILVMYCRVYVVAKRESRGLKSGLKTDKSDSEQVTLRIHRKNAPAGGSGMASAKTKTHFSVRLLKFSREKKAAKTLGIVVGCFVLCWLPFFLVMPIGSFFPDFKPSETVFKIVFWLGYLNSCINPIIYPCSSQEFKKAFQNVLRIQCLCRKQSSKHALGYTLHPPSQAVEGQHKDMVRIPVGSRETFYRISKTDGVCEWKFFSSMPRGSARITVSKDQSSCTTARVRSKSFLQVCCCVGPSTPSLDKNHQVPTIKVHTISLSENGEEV
- protocol-text: Intrinsic (functional) activity for α1A-AR
- Format: cell-based
- condition-notes: antagonist potency; α1A-AR in rat tail artery (table title); 4–7 experimental results; read-out: IC50 ± SEM α1A-AR
experimental-readout: pIC50
pIC50 here is simply -log10 of the concentration when that concentration is written in mol/L.

Task: Give a short answer stating reported pIC50 for COc1ccc(/C=C2\NC(=O)N(CCCN3CCN(c4ccccc4OC)CC3)C2=O)cc1OC .
Output: 7.24

Task: Give a short answer stating reported pIC50 for CCOc1ccccc1N1CCN(CCCN2C(=O)N/C(=C\c3cccc(OC)c3)C2=O)CC1 .
Output: 8.14

Task: Give a short answer stating reported pIC50 for CCOc1ccccc1N1CCN(CCCN2C(=O)N/C(=C\c3cc(OC)c(OC)c(OC)c3)C2=O)CC1 .
Output: 7.72

Task: Give a short answer stating reported pIC50 for COc1ccc(/C=C2\NC(=O)N(CCCN3CCN(c4ccccc4OC)CC3)C2=O)cc1 .
Output: 7.89

* * *

Each entry below carries its reported melting point.

Solved cases (5 shown):
COc1cccc(/C=C2\NC(=O)N(CCCN3CCN(c4ccccc4Cl)CC3)C2=O)c1 [Compound 11] | 144 to 146 °C
CCOc1ccccc1N1CCN(CC(O)CN2C(=O)N/C(=C\c3cc(OC)c(OC)c(OC)c3)C2=O)CC1 (stereo not drawn) [Compound 9] | 104 to 106 °C
COc1ccc(/C=C2\NC(=O)N(CC(O)CN3CCN(c4ccccc4F)CC3)C2=O)cc1 (stereo not drawn) [Compound 8] | 104 to 106 °C
COc1ccccc1N1CCN(CCCN2C(=O)N/C(=C\c3cc(OC)c(OC)c(OC)c3)C2=O)CC1 [Compound 15] | 130 to 132 °C
COc1ccc(/C=C2\NC(=O)N(CC(O)CN3CCN(c4ccccc4OC)CC3)C2=O)cc1 (stereo not drawn) [Compound 6] | 176 to 178 °C

Task: Give a short answer stating reported melting point for CCOc1ccccc1N1CCN(CCCN2C(=O)N/C(=C\c3ccc(OC)cc3)C2=O)CC1 [Compound 13] .
Output: 180 to 183 °C

* * *

Each entry below carries its reported Ki.
- target-entity: human 5-HT7b receptor (Homo sapiens, UniProt P34969)
- Sequence (P34969 1-432): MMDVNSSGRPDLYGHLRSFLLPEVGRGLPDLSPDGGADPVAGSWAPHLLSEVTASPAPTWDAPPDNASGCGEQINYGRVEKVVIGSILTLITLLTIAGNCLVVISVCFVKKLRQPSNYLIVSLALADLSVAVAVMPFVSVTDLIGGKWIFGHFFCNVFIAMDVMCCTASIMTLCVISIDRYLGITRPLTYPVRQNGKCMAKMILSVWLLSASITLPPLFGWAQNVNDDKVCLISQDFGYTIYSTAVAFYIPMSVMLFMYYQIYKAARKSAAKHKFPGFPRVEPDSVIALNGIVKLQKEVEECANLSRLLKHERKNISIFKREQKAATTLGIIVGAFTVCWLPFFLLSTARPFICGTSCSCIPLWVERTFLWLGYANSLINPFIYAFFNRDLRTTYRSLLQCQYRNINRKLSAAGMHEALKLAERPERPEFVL
- protocol-text: Radioligand binding assay 5-HT7 (HEK-293 membranes, [3H]-5-CT)
Write the number in nM without appending the unit.

Solved cases (3 shown):
CCOc1ccccc1N1CCN(CC(O)CN2C(=O)N/C(=C\c3cccc(OC)c3)C2=O)CC1 (stereo not shown) [Compound 5] | 79
CCOc1ccccc1N1CCN(CCCN2C(=O)N/C(=C\c3cc(OC)c(OC)c(OC)c3)C2=O)CC1 [Compound 16] | 138
COc1ccc(/C=C2\NC(=O)N(CC(O)CN3CCN(c4ccccc4F)CC3)C2=O)cc1 (stereo not shown) [Compound 8] | 1040

Below: the item to evaluate.
Task: Give a short answer stating reported Ki for COc1ccc(/C=C2\NC(=O)N(CCCN3CCN(c4ccccc4OC)CC3)C2=O)cc1 [Compound 12] .
Output: 101

* * *

So I've got pKi readings for human 5-HT6 receptor (Homo sapiens), take a look.
pKi here is simply -log10 of the concentration when that concentration is written in mol/L.

Solved cases (2 shown):
COc1ccc(/C=C2\NC(=O)N(CC(O)CN3CCN(c4ccccc4F)CC3)C2=O)cc1 (stereo not drawn) | 4.93
CCOc1ccccc1N1CCN(CC(O)CN2C(=O)N/C(=C\c3cc(OC)c(OC)c(OC)c3)C2=O)CC1 (stereo not drawn) | 5.55

Task: Give a short answer stating reported pKi for COc1ccc(/C=C2\NC(=O)N(CC(O)CN3CCN(c4ccccc4OC)CC3)C2=O)cc1 (stereo not drawn) .
Output: 4.69

* * *

- target-entity: human 5-HT7b receptor (Homo sapiens, UniProt P34969)
- protocol-text: Radioligand binding assay 5-HT7 (HEK-293 membranes, [3H]-5-CT)
Each entry below carries its reported pKi.
pKi here is simply -log10 of the concentration when that concentration is written in mol/L.

CCOc1ccccc1N1CCN(CCCN2C(=O)N/C(=C\c3ccc(OC)cc3)C2=O)CC1 [Compound 13] | 6.94
COc1ccccc1N1CCN(CCCN2C(=O)N/C(=C\c3cc(OC)c(OC)c(OC)c3)C2=O)CC1 [Compound 15] | 6.18
CCOc1ccccc1N1CCN(CC(O)CN2C(=O)N/C(=C\c3ccc(OC)cc3)C2=O)CC1 (centres unmarked) [Compound 7] | 6.92
COc1ccc(/C=C2\NC(=O)N(CCCN3CCN(c4ccccc4OC)CC3)C2=O)cc1OC [Compound 14] | 6.72
CCOc1ccccc1N1CCN(CC(O)CN2C(=O)N/C(=C\c3cc(OC)c(OC)c(OC)c3)C2=O)CC1 (centres unmarked) [Compound 9] | 5.90

Task: Give a short answer stating reported pKi for COc1cccc(/C=C2\NC(=O)N(CC(O)CN3CCN(c4ccccc4OC)CC3)C2=O)c1 (centres unmarked) [Compound 4] .
Output: 6.55

Task: Give a short answer stating reported pKi for COc1cccc(/C=C2\NC(=O)N(CCCN3CCN(c4ccccc4Cl)CC3)C2=O)c1 [Compound 11] .
Output: 6.82

Task: Give a short answer stating reported pKi for COc1ccc(/C=C2\NC(=O)N(CC(O)CN3CCN(c4ccccc4OC)CC3)C2=O)cc1 (centres unmarked) [Compound 6] .
Output: 6.71

* * *

- target-entity: UniProt P08908
pKi: −log10 of the molar value.
Please mark met if the recorded pKi is equal to or greater than 7, and not met if it falls below.

// below: answered compounds
COc1ccc(/C=C2\NC(=O)N(CC(O)CN3CCN(c4ccccc4F)CC3)C2=O)cc1 (centres unmarked) | not met
COc1ccc(/C=C2\NC(=O)N(CCCN3CCN(c4ccccc4OC)CC3)C2=O)cc1 | met
COc1cccc(/C=C2\NC(=O)N(CCCN3CCN(c4ccccc4Cl)CC3)C2=O)c1 | not met

As a next step, examine the compound that follows.
Task: Does pKi meet or surpass 7 for CCOc1ccccc1N1CCN(CCCN2C(=O)N/C(=C\c3cc(OC)c(OC)c(OC)c3)C2=O)CC1 ?
Output: not met
